Data provenance: ChEMBL document CHEMBL3758148

assayed.target: Muscarinic acetylcholine receptor M1 (Homo sapiens) (UniProt P11229)
Sequence (P11229 whole entry): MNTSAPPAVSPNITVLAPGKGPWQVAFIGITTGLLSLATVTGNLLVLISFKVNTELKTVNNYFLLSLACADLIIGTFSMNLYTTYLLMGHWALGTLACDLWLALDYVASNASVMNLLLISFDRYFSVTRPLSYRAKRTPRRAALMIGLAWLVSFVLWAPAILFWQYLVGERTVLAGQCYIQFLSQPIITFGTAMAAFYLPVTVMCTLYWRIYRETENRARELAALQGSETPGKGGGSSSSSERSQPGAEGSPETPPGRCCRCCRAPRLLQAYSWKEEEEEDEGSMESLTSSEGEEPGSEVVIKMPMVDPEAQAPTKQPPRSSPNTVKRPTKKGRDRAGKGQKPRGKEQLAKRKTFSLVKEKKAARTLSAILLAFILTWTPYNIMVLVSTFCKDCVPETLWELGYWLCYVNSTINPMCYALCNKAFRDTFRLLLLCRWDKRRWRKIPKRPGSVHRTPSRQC
protocol.text: Displacement of [3H]NMS from human muscarinic M1 receptor expressed in CHO Flp-In cells after 1 hr by microbeta liquid scintillation counting-based radioligand binding assay
Assay type: cell-based
compounds and their reported Kb
readout.name: Kb

compound: O=c1cc(-c2ccccc2OCc2ccccc2C(F)(F)F)ccn1[C@H]1CCCC[C@@H]1O (racemic)
assayed.target: Muscarinic acetylcholine receptor M1 (Homo sapiens) (UniProt P11229)
test.result: 33 µM

compound: COc1ccc(COc2ccccc2-c2ccn([C@H]3CCCC[C@@H]3O)c(=O)c2)cc1 (racemic)
assayed.target: Muscarinic acetylcholine receptor M1 (Homo sapiens) (UniProt P11229)
test.result: 52 µM

compound: NC(=O)c1cccc(COc2ccccc2-c2ccn([C@H]3CCCC[C@@H]3O)c(=O)c2)c1 (racemic)
assayed.target: Muscarinic acetylcholine receptor M1 (Homo sapiens) (UniProt P11229)
test.result: 91 µM

compound: CCCn1cc(-c2ccc(COc3ccccc3-c3ccn([C@H]4CCCC[C@@H]4O)c(=O)c3)cc2)cn1 (racemic)
assayed.target: Muscarinic acetylcholine receptor M1 (Homo sapiens) (UniProt P11229)
test.result: 23 µM

compound: O=C(O)c1cccc(COc2ccccc2-c2ccn([C@H]3CCCC[C@@H]3O)c(=O)c2)c1 (racemic)
assayed.target: Muscarinic acetylcholine receptor M1 (Homo sapiens) (UniProt P11229)
test.result: 91 µM

compound: O=c1cc(-c2ccccc2OCc2ccc(-c3cccnc3)cc2)ccn1[C@H]1CCCC[C@@H]1O (racemic)
assayed.target: Muscarinic acetylcholine receptor M1 (Homo sapiens) (UniProt P11229)
test.result: 19 µM

compound: O=c1cc(-c2ccccc2OCc2ccccc2)ccn1[C@H]1CCCC[C@@H]1O (racemic)
assayed.target: Muscarinic acetylcholine receptor M1 (Homo sapiens) (UniProt P11229)
test.result: 28 µM

compound: O=c1cc(-c2ccccc2OCc2ccc(Br)cc2F)ccn1[C@H]1CCCC[C@@H]1O (racemic)
assayed.target: Muscarinic acetylcholine receptor M1 (Homo sapiens) (UniProt P11229)
test.result: 18 µM

compound: Cn1cc(-c2ccc(COc3ccccc3-c3ccn([C@H]4CCCC[C@@H]4O)c(=O)c3)c(F)c2)cn1 (racemic)
assayed.target: Muscarinic acetylcholine receptor M1 (Homo sapiens) (UniProt P11229)
test.result: 31 µM

compound: O=c1cc(-c2ccccc2O)ccn1[C@H]1CCCC[C@@H]1O (racemic)
assayed.target: Muscarinic acetylcholine receptor M1 (Homo sapiens) (UniProt P11229)
test.result: 79 µM

compound: O=c1cc(-c2ccccc2OCc2ccc(-c3ccccc3)cc2)ccn1[C@H]1CCCC[C@@H]1O (racemic)
assayed.target: Muscarinic acetylcholine receptor M1 (Homo sapiens) (UniProt P11229)
test.result: 10 µM

compound: COC(=O)c1ccc(COc2ccccc2-c2ccn([C@H]3CCCC[C@@H]3O)c(=O)c2)cc1 (racemic)
assayed.target: Muscarinic acetylcholine receptor M1 (Homo sapiens) (UniProt P11229)
test.result: 87 µM

compound: O=c1cc(-c2ccccc2OCc2ccc(-c3cnn(CC4CC4)c3)cc2)ccn1[C@H]1CCCC[C@@H]1O (racemic)
assayed.target: Muscarinic acetylcholine receptor M1 (Homo sapiens) (UniProt P11229)
test.result: 7 µM

----------
assayed.target: Muscarinic acetylcholine receptor M1 (Homo sapiens)
protocol.text: Positive allosteric modulation of human muscarinic M1 receptor expressed in CHO Flp-In cells assessed as functional cooperativity with acetylcholine measured as IP1 accumulation after 1 hr by HTRF method
Format: cell-based
Entry flag: t if log(activity) reaches 1; f if it does not.

compound: Cn1cc(-c2ccc(COc3ccccc3-c3ccn([C@H]4CCCC[C@@H]4O)c(=O)c3)c(F)c2)cn1 (racemic)
class.assignment: t
--
compound: O=C(O)c1ccc(COc2ccccc2-c2ccn([C@H]3CCCC[C@@H]3O)c(=O)c2)cc1 (racemic)
class.assignment: f
--
compound: O=c1cc(-c2ccccc2OCc2ccc(-c3cnn(C4CCCC4)c3)cc2)ccn1[C@H]1CCCC[C@@H]1O (racemic)
class.assignment: t
--
compound: NC(=O)c1ccc(COc2ccccc2-c2ccn([C@H]3CCCC[C@@H]3O)c(=O)c2)cc1 (racemic)
class.assignment: t
--
compound: O=c1cc(-c2ccccc2OCc2ccc(-c3ncco3)cc2)ccn1[C@H]1CCCC[C@@H]1O (racemic)
class.assignment: t
--
compound: O=c1cc(-c2ccccc2OCc2ccc(F)cc2)ccn1[C@H]1CCCC[C@@H]1O (racemic)
class.assignment: t
--
compound: O=c1cc(-c2ccccc2NCc2ccc(-c3cccnc3)cc2)ccn1[C@H]1CCCC[C@@H]1O (racemic)
class.assignment: f
--
compound: CC(C)n1cc(-c2ccc(COc3ccccc3-c3ccn([C@H]4CCCC[C@@H]4O)c(=O)c3)cc2)cn1 (racemic)
class.assignment: t
--
compound: COc1ccc(COc2ccccc2-c2ccn([C@H]3CCCC[C@@H]3O)c(=O)c2)cc1 (racemic)
class.assignment: f
--
compound: COC(=O)c1cccc(COc2ccccc2-c2ccn([C@H]3CCCC[C@@H]3O)c(=O)c2)c1 (racemic)
class.assignment: f
--
compound: O=c1cc(-c2ccccc2OCc2ccccc2)ccn1[C@H]1CCCC[C@@H]1O (racemic)
class.assignment: f
--
compound: O=c1cc(-c2ccccc2OCc2ccc(-c3cncnc3)cc2)ccn1[C@H]1CCCC[C@@H]1O (racemic)
class.assignment: t
--
compound: Cn1cc(-c2ccc(COc3ccccc3-c3cc(=O)n([C@H]4CCCC[C@@H]4O)cn3)cc2)cn1 (racemic)
class.assignment: t
--
compound: COc1ccc(Cn2cc(C(=O)O)c(=O)c3ccccc32)cc1
class.assignment: t
